Assay Notes: non-covalent RecA intein splicing inhibitors, dose response, biochemical, cell-free, fluorescence, secondary screen (AID 449750)
The source made the active and inactive calls. How the calls were made is not given here.
// allowed return values: 1 (yes) (active), 0 (no) (inactive)

Take a look at these entries with their results.
CCN1CCN(C(c2cccnc2)c2cc(Cl)c3cccnc3c2O)CC1 (configuration not stated) = 1 (yes)
CC(=O)Oc1ccc(/C=C2/C(=O)N(c3ccccc3)N=C2C)cc1 = 1 (yes)
O=c1[nH]c2ccccc2n2c(-c3ccccc3)nnc12 = 1 (yes)
CSCCC1C(C#N)=C(N)Oc2n[nH]c(-c3cccs3)c21 (configuration not stated) = 1 (yes)
CC(NC(=O)/C(C#N)=C/c1ccc([N+](=O)[O-])o1)c1ccccc1 (configuration not stated) = 0 (no)
CSc1nc(-c2ccco2)nn1C(=O)c1cccs1 = 0 (no)

Recorded test outcome, item COc1cccc(NC2=C(Cl)C(=O)OC2OC(=O)c2ccco2)c1 (configuration not stated)
0 (no)

====

Assay Notes: non-covalent RecA intein splicing inhibitors, dose response, biochemical, cell-free, fluorescence, secondary screen (AID 449750)
Calls of active or inactive are those of the source. No rule for the calls is given here.
// allowed return values: 1 for active, 0 for inactive

Cn1c(SCC(=O)NCC2CCCO2)ncc(C(=O)Nc2ccc(Cl)cc2)c1=O (configuration not stated) = 0

Recorded test outcome, item `CC(C)[C@H](NC(=O)Nc1ccc(Oc2ccccc2)cc1)C(=O)O`
0

Recorded test outcome, item CCOC(=O)C1=C(C)NC2(O)c3ccccc3C(=O)C12O (configuration not stated)
1

Recorded test outcome, item `O=C(CCl)Nc1cn(-c2ccccc2)nc1-c1ccccc1`
1

====

Assay Notes: non-covalent RecA intein splicing inhibitors, dose response, biochemical, cell-free, fluorescence, secondary screen (AID 449750)
Calls of active or inactive are those of the source. The rule behind the calls is not given here.
For each entry below, report its AC50 value.

CC(=O)Nc1ccc(S(=O)(=O)NC2=C(N3CCN(c4ccc(F)cc4)CC3)C(=O)c3ccccc3C2=O)cc1 = 26.7 µM

Return reported AC50 values for all items listed beneath this line.
1. COC(=O)c1cccc(N2C(=O)C(Cl)=C(N3CCOCC3)C2=O)c1
2. Cc1cc(C)n2nc(CNS(=O)(=O)c3c(F)c(F)c(F)c(F)c3F)nc2n1

1. > 38 µM (inactive)
2. > 38 µM (inactive)

====

For each entry below, report its AC50 value.
Assay Notes: non-covalent RecA intein splicing inhibitors, dose response, biochemical, cell-free, fluorescence, secondary screen (AID 449750)
Calls of active or inactive are those of the source. The rule behind the calls is not given here.

// solved cases for AC50 follow
Cc1[nH][nH]c(=O)c1C(c1cc(Br)ccc1O)c1c(C)[nH][nH]c1=O = 8.35 µM
CCOc1ccc(C(c2c(C)[nH][nH]c2=O)c2c(C)[nH][nH]c2=O)cc1OCC = 9.1 µM
Cc1cccc(C)c1NC(=O)c1nc(S(=O)(=O)Cc2ccccc2)ncc1Cl = > 38 µM (inactive)

Return reported AC50 values for all items listed beneath this line.
1. c1ccc2[nH]c3cc4ncnc4cc3nc2c1
2. CCOC(=O)C1CCN(S(=O)(=O)c2c(Cl)ccc3nonc23)CC1
3. O=C(O)COc1ccc(/C=C2/SC(=S)N(Cc3ccccc3)C2=O)cc1
4. O=C(CCS(=O)NCc1ccccc1)NCc1ccccc1 (stereo not drawn)
5. CC(=O)N1C(=O)C2(C(C#N)=C(N)Oc3c2c(C)nn3-c2ccccc2)c2ccccc21 (stereo not drawn)

["37.5 µM", "11.6 µM", "31.6 µM", "> 38 µM (inactive)", "28 µM"]
